PROTOCOL_DETAILS: Bioavailability in the baboon: plasma levels of omoconazole after oral administration (microbiological agar diffusion assay, test germ Candida macedoniensis)
Format: in vivo, babouin
REPORTED_CONDITIONS: baboon, fasted baboons, 100 mg/kg omoconazole oral, mean of 4 animals, Ex 4, 5, 6 given as such, Ex 9, 14 and omoconazole in No. 2 capsules, read-out: Temps de C. Max.
ENDPOINT_NAME: Tmax (h)
Answers are plain numbers, in h.

[ask] Tell me the measured Tmax of C/C(=C(/OCCOc1ccc(Cl)cc1)c1ccc(Cl)cc1Cl)n1ccnc1 [Omoconazole] , please.
[reply] 5.5

* * *

PROTOCOL_DETAILS: Bioavailability in the baboon: plasma levels of omoconazole after oral administration (microbiological agar diffusion assay, test germ Candida macedoniensis)
Assay type: in vivo, babouin
REPORTED_CONDITIONS: baboon, po, fasted baboons, 100 mg/kg omoconazole by gastric tube, mean of 3 animals, sampling up to 24 h, read-out: aire sous la courbe
Method: La biodisponibilité des compositions pharmaceutiques selon l'invention a été étudiée chez le babouin en comparaison avec le produit (I) seul. Les études ont été conduites à la dose de 100 mg/kg d'omoconazole et les produits ont été administrés aux singes à jeun par sonde gastrique. […] Les dosages des taux plasmatiques d'omoconazole ont été effectués par une méthode microbiologique réalisée à l'aide d'une technique de diffusion en milieu gélosé avec comme germe test Candida macedoniensis. […]
ENDPOINT_NAME: AUC at 24 h
Reply with a number, then the unit it belongs to.

[ask] Consider the compound shown here: C/C(=C(/OCCOc1ccc(Cl)cc1)c1ccc(Cl)cc1Cl)n1ccnc1 What is its recorded AUC at 24 h?
[reply] 11500 ng·h/mL
